Data credit: patent US11142504B2

# Tested on: MycCap cells
# Assay Method Text: Cell viability of MycCap cells
# Assay type: cell-based
# Experimental Parameters: Mus musculus, Myc-CaP

Compound	IC50 [µM]
Oc1cc(OCc2ccc(Cl)cc2)ccc1-c1n[nH]c(C(F)(F)F)c1-c1ccccc1 [NUCC-0198295]	4.6
Cn1nc(C(F)(F)F)cc1-c1ccc(OCc2ccc(Cl)cc2)c(-c2cccc(C(F)(F)F)c2)c1O [NUCC-0200974]	10.2
O=C1CCC(N2C(=O)c3cccc(OCc4cn(CCOCCOCCOCCOCC(=O)Nc5ccc(COc6ccc(-c7cc(C(F)(F)F)n[nH]7)c(O)c6-c6cc(C(F)(F)F)cc(C(F)(F)F)c6)cc5)nn4)c3C2=O)C(=O)N1 (stereo not shown) [NUCC-0201203]	32.4
CCCCOc1ccc(-c2cc(C(F)(F)F)nn2C)c(O)c1-c1cncc(C(F)(F)F)c1 [NUCC-0201204]	23
